Assay: clinical
Settings: human, in vivo, multiple-dose administration; read-out: mean Tmax across dose cohorts
Procedure: For single-dose PK parameters, plasma samples were taken at pre-dose and 0.5 h, 1 h, 2 h, 3 h, 4 h, 6 h, 8 h, 12 h, 24 h, 48 h, 72 h, 96 h, 120 h, 144 h, and 168 h post-dose in PK lead-in phase of dose-escalation phase, and plasma samples were also taken at pre-dose and 0.5 h, 1 h, 2 h, 3 h, 4 h, 6 h, 8 h, 12 h, and 24 h post-dose in cycle 1 day 1 of dose-expansion phase. […]
metric: Tmax

Entry COc1cc(N2CCC(N3CCN(C)CC3)CC2)ccc1Nc1nc2c(c(Nc3ccccc3S(=O)(=O)NC(C)C)n1)CCN2 , Tmax reported as 1.5 to 4.3 h
